tested on: PC-3; test: Antiproliferative activity against human PC3 cells assessed as reduction in cell viability incubated for 72 hrs in serum deprivation condition by MTT assay; assay type: functional, cell-based; settings: PC-3, 72 h
property_label: pIC50
Worth noting: pIC50 values are minus log10 of concentrations stated in mol/L.

Q: Using PC-3 as the test system, report measured pIC50 of C=C(C)[C@@H]1CCC(C)=C[C@H]1c1c(O)cc(CCCCC)cc1O [CANNABIDIOL] .
A: 5.54

###

system: LNCaP; test: Antiproliferative activity against human LNCap cells assessed as reduction in cell viability incubated for 72 hrs in presence of 10% FBS by MTT assay; assay type: functional, cell-based
property_label: IC50 (µM)
Form entry: value (µM) — number only.

Q: Give me measured IC50, please, for this molecule: C=C(C)[C@@H]1CCC(C)=C[C@H]1c1c(O)cc(CCCCC)cc1O
A: 18

###

system: DU-145; assay: Antiproliferative activity against human DU-145 cells assessed as reduction in cell viability incubated for 72 hrs in presence of 10% FBS by MTT assay; type: functional, cell-based; conditions: DU-145, 72 h
property_label: pIC50
Worth noting: pIC50 values are minus log10 of concentrations stated in mol/L.

Q: Give me measured pIC50, please, for this compound: C=C(C)[C@@H]1CCC(C)=C[C@H]1c1c(O)cc(CCCCC)cc1O
A: 4.91
